These data points were gathered from patent US10597388B2.

- System: wheat, spring (spring wheat, Triticum aestivum)
- experiment-description: Test D controlled growth environment herbicide test, pre- and postemergence
- Assay type: in vivo
- assay-conditions: postemergence, 62 g ai/ha; scale 0 to 100, 0 no effect, 100 complete control
measured-metric: Plant response rating, Wheat, Spring
Note: the reply should be a number with no unit written.

*Q* Fill in: Plant response rating, Wheat, Spring of "Cc1ccc(-c2c(O)c(Br)nn(C)c2=O)c2ccccc12" is ___
*A* 0

*Q* Next compound up: "CC(=O)Oc1c(C)nn(C)c(=O)c1-c1c(C)cc(C)c2ccccc12"
*A* 30

*Q* Next compound up: "Cc1ccc2ccccc2c1-c1c(O)c(C)nn(C)c1=O"
*A* 45

*Q* Next compound up: "CC(=O)Oc1c(C)nn(C)c(=O)c1-c1ccc(F)c2ccccc12"
*A* 35

*Q* Next compound up: "CCC(=O)Oc1c(C)nn(C)c(=O)c1-c1c(C)sc2ccc(C)cc12"
*A* 10

*Q* Next compound up: "CCC(=O)Oc1c(C)nn(C)c(=O)c1-c1c(C)sc2c(C)cc(C)cc12"
*A* 5

*Q* Next compound up: "CCOC(=O)Oc1c(C)nn(C)c(=O)c1-c1c(C)sc2ccc(C)cc12"
*A* 0

*Q* Next compound up: "COC(=O)Oc1c(C)nn(C)c(=O)c1-c1c(C)sc2c(C)cc(C)cc12"
*A* 0

---

For each of the compounds below, state its Plant response rating, Chamomile.
- System: chamomile (scentless chamomile, Matricaria inodora)
- experiment-description: Test D controlled growth environment herbicide test, pre- and postemergence
- Assay type: in vivo
- assay-conditions: Preemergence, 250 g ai/ha; scale 0 to 100 (0 no effect, 100 complete control)

*Q* Fill in: Plant response rating, Chamomile of "Cc1ccc2ccc(C)c(-c3c(O)c(C)nn(C)c3=O)c2c1" is ___
*A* 100

*Q* Next compound up: "CC(=O)Oc1c(C)nn(C)c(=O)c1-c1c(C)sc2ccc(C)cc12"
*A* 95

*Q* Next compound up: "Cc1ccc(-c2c(O)c(Br)nn(C)c2=O)c2ccccc12"
*A* 100

*Q* Next compound up: "CC(=O)Oc1c(C)nn(C)c(=O)c1-c1ccc(F)c2ccccc12"
*A* 100

*Q* Next compound up: "Cc1cc(C)c2sc(C)c(-c3c(OC(=O)OC(C)C)c(C)nn(C)c3=O)c2c1"
*A* 100

---

- Test system: wheat (Triticum aestivum)
- experiment-description: Test A greenhouse herbicide test, pre- and postemergence
- Assay type: in vivo
- assay-conditions: Postemergence, 125 g ai/ha; 0 to 100 scale, 0 no effect, 100 complete control
For each of the molecules below, state its Plant response rating, Wheat.

*Q* Fill in: Plant response rating, Wheat of Cc1ccc2ccccc2c1-c1c(OC(=O)N2CCOCC2)c(Br)nn(C)c1=O [Compound 176] is ___
*A* 0

*Q* Next molecule up: Cc1cc(C)c2sc(C)c(-c3c(OCC#N)c(C)nn(C)c3=O)c2c1 [Compound 188]
*A* 0

*Q* Next molecule up: Cc1nn(C)c(=O)c(-c2c(C)sc3ccccc23)c1OC(=O)N1CCOCC1 [Compound 170]
*A* 0

---

- System: foxtail, giant (giant foxtail, Setaria faberii)
- experiment-description: Test E greenhouse herbicide test, pre- and postemergence
- Format: in vivo
- assay-conditions: 62 g ai/ha, Preemergence; scale 0 to 100 (0 no effect, 100 complete control)
measured-metric: Plant response rating, Foxtail, Giant

*Q* Fill in: Plant response rating, Foxtail, Giant of CCOC(=O)Oc1c(C)nn(C)c(=O)c1-c1c(C)sc2ccc(C)cc12 [Compound 82] is ___
*A* 65

*Q* Next compound up: COC(=O)Oc1c(C)nn(C)c(=O)c1-c1c(C)sc2c(C)cc(C)cc12 [Compound 81]
*A* 98

*Q* Next compound up: Cc1ccc2ccccc2c1-c1c(O)c(C)nn(C)c1=O [Compound 59]
*A* 95

*Q* Next compound up: CCC(=O)Oc1c(C)nn(C)c(=O)c1-c1c(C)sc2ccc(Cl)cc12 [Compound 109]
*A* 40

*Q* Next compound up: Cc1cc(C)c2sc(C)c(-c3c(OC(=O)OCCCl)c(C)nn(C)c3=O)c2c1 [Compound 85]
*A* 65
